Target: human KDR (VEGF-receptor-2) (Homo sapiens)
Construct: beginning at Met-806; (5′-ATG GAT CCA GAT GM CTC CCA TTG) and ending at Val-1356; made in house
Assay: KDR kinase enzyme assay (DELFIA, KDR-IC-Flag, poly(Glu4-Tyr) peptide)
Format: biochemical
Conditions: Concentration 100 nM; ATP conc. 10 μM; read-out: % Inhibition
READOUT: inhibition at 0.1 µM (%)
Provide the reading as a plain figure in %.

See these solved cases before continuing.
COMPOUND	TESTED_ON	inhibition at 0.1 µM [%]
COc1cc2ncnc(NC3=CC(=O)C(N(C)c4ccccc4)=CC3=O)c2cc1OC [Example 85]	human KDR (VEGF-receptor-2) (Homo sapiens)	20
COCCOc1cc2ncnc(NC3=CC(=O)C(OCc4ccccc4)=CC3=O)c2cc1OC [Example 96]	human KDR (VEGF-receptor-2) (Homo sapiens)	67
COCCOc1cc2ncnc(NC3=CC(=O)C(Oc4ccc(CCC(=O)OC)cc4)=CC3=O)c2cc1OC [Example 40]	human KDR (VEGF-receptor-2) (Homo sapiens)	92

Query block: Looking for the measured inhibition at 0.1 µM of COc1cc2ncnc(NC3=CC(=O)C=C(C)C3=O)c2cc1OC [Example 7] , can you help?
Result block: 85

Query block: Looking for the measured inhibition at 0.1 µM of COc1cc2ncnc(NC3=CC(=O)C(Oc4ccc(Cl)cc4)=CC3=O)c2cc1OC [Example 94] , can you help?
Result block: 93

====

Listing of entries alongside the reported % Inhibition of KDR kinase autophosphorylation in KDR15 cells.
Target: KDR (Homo sapiens, UniProt P35968)
Sequence (P35968 20-1356): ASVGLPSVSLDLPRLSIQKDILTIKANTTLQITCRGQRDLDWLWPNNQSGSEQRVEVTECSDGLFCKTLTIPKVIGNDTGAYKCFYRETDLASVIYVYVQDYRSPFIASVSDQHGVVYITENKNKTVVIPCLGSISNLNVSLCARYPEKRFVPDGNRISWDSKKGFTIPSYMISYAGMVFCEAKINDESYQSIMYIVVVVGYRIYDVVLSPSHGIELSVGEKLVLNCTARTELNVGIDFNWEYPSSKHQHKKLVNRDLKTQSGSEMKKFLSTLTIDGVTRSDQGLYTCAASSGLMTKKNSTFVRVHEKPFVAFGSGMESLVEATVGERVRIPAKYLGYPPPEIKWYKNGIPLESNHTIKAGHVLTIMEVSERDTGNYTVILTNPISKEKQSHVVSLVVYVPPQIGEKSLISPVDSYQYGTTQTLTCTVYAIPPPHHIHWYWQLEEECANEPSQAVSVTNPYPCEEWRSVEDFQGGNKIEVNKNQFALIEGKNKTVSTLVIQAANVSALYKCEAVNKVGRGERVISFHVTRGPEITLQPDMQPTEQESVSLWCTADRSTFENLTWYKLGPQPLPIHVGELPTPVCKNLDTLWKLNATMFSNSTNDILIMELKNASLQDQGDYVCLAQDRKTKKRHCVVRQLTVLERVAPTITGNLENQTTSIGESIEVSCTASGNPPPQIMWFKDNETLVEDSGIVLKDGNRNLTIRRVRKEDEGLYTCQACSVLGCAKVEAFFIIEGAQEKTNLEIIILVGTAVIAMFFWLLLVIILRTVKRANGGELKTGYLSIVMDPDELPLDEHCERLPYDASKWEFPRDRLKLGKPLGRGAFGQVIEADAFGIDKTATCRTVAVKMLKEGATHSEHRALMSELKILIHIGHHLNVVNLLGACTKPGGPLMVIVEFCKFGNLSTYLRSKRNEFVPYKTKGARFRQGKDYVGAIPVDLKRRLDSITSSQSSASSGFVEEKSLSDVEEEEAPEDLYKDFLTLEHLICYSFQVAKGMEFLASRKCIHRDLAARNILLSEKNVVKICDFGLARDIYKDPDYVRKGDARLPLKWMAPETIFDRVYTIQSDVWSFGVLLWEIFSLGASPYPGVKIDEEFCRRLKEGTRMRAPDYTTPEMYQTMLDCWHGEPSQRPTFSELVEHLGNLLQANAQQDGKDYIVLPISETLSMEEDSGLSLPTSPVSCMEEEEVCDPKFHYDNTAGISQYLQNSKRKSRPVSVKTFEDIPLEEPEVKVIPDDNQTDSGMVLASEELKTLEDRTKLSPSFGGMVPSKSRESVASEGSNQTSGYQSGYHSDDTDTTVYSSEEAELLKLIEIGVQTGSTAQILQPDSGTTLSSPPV
Conditions: compound conc. 1000 nM
Provide the reading as a plain figure in %.

See these solved cases before continuing.
MOL	TESTED_ON	VAL
COCCOc1cc2ncnc(NC3=CC(=O)C(Oc4ccc(S(N)(=O)=O)cc4)=CC3=O)c2cc1OC	KDR (Homo sapiens, UniProt P35968)	97
COCCOc1cc2ncnc(NC3=CC(=O)C(N(C)c4ccc(N(C)C)cc4)=CC3=O)c2cc1OC	KDR (Homo sapiens, UniProt P35968)	61
COc1cc2ncnc(NC3=CC(=O)C=C(C)C3=O)c2cc1OC	KDR (Homo sapiens, UniProt P35968)	41
COCCOc1cc2ncnc(NC3=CC(=O)C(OCc4ccccc4)=CC3=O)c2cc1OC	KDR (Homo sapiens, UniProt P35968)	22

From here, focus on the item given below.
Query block: Looking for the measured % Inhibition of KDR kinase autophosphorylation in KDR15 cells of COc1cc2ncnc(NC3=CC(=O)C(C)=CC3=O)c2cc1OC , can you help?
Result block: 106

====

Target: human KDR (VEGF-receptor-2) (Homo sapiens, UniProt P35968)
Construct: beginning at Met-806; (5′-ATG GAT CCA GAT GM CTC CCA TTG) and ending at Val-1356; made in house
Sequence (P35968 806-1356): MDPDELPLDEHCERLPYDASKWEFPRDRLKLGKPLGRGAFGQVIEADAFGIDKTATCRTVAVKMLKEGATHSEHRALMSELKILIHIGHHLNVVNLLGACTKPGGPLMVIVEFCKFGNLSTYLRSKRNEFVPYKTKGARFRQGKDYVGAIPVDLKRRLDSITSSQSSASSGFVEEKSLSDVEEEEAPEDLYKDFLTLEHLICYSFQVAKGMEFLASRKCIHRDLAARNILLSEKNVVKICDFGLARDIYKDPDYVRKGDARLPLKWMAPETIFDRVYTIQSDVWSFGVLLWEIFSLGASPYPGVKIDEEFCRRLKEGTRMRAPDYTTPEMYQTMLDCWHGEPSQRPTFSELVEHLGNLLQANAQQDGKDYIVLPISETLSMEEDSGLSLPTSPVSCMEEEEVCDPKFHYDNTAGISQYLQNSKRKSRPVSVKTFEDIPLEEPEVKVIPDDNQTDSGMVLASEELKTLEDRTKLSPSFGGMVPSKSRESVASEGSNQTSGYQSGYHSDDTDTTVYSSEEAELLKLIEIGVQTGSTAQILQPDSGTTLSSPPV
Assay: KDR kinase enzyme assay (DELFIA, KDR-IC-Flag, poly(Glu4-Tyr) peptide)
Assay type: biochemical
Conditions: Concentration 1000 nM; ATP conc. 10 μM; read-out: % Inhibition
Listing of entries alongside the reported inhibition at 1 µM.
Provide the reading as a plain figure in %.

See these solved cases before continuing.
MOLECULE	UNIT_NAME	VAL
COCCOc1cc2ncnc(NC3=CC(=O)C(Oc4ccccc4C)=CC3=O)c2cc1OC [Example 90]	%	94
COc1cc2ncnc(NC3=CC(=O)C(Oc4ccccc4)=CC3=O)c2cc1OC [Example 95]	%	96
COCCOc1cc2ncnc(NC3=CC(=O)C(Oc4ccc(C(C)(C)c5ccccc5)cc4)=CC3=O)c2cc1OC [Example 56]	%	81
COCCOc1cc2ncnc(NC3=CC(=O)C(Oc4ccc(C(=O)Cc5ccccc5)cc4)=CC3=O)c2cc1OC [Example 49]	%	93
COCCOc1cc2ncnc(NC3=CC(=O)C(Oc4ccc(CCN)cc4)=CC3=O)c2cc1OC [Example 54]	%	10
COc1cc2ncnc(NC3=CC(=O)C=C(C)C3=O)c2cc1OC [Example 7]	%	96

Query block: Looking for the measured inhibition at 1 µM of COCCOc1cc2ncnc(NC3=CC(=O)C(Oc4ccc(C(F)(F)F)cc4)=CC3=O)c2cc1OC [Example 36] , can you help?
Result block: 96

Query block: Looking for the measured inhibition at 1 µM of COCCOc1cc2ncnc(NC3=CC(=O)C(Oc4ccc5c(c4)Cc4ccccc4-5)=CC3=O)c2cc1OC [Example 53] , can you help?
Result block: 94

Query block: Looking for the measured inhibition at 1 µM of COc1cc2ncnc(NC3=CC(=O)C(N(C)C)=CC3=O)c2cc1OC [Example 88] , can you help?
Result block: 63

Query block: Looking for the measured inhibition at 1 µM of COCCOc1cc2ncnc(NC3=CC(=O)C(N(C)Cc4ccccc4)=CC3=O)c2cc1OC [Example 82] , can you help?
Result block: 30

Query block: Looking for the measured inhibition at 1 µM of COc1cc2ncnc(NC3=CC(=O)C(N4CCOCC4)=CC3=O)c2cc1OC [Example 84] , can you help?
Result block: 88

Query block: Looking for the measured inhibition at 1 µM of CCOC(=O)Cc1ccc(OC2=CC(=O)C(Nc3ncnc4cc(OCCOC)c(OC)cc34)=CC2=O)cc1 [Example 37] , can you help?
Result block: 93
